tested on: AncSZ; assay: phosphorylation enrichment, bacterial display (enrichment ratio); higher = better substrate or ligand; peptides without Tyr show the background;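 note: 11-residue human phosphosite peptides and single-mutation variants displayed on the E. coli surface, counted by deep sequencing, each peptide's frequency after selection divided by its frequency in the unselected input library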;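 note: frequency after pTyr selection over input frequency; kinase dosed for 20-30% of maximal phosphorylation in three min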
parameter: phosphorylation enrichment
Give bare numbers.

- sequenceChain: "RPASVYTKRCS [CPT2_Y508]"
  measValue: 0.781
- sequenceChain: "LDFNEYVRDLN [HPRT1_Y198_F199V_YF]"
  measValue: 1.69
- sequenceChain: "AAQNCYKVTNG [TPI1_Y105]"
  measValue: 0.725
- sequenceChain: "PATYTYDEYKK [COL8A2_Y648]"
  measValue: 1.43
- sequenceChain: "DLSEVYKPCRK [CCDC93_Y176_R179C]"
  measValue: 0.847

Would you mind listing phosphorylation enrichment for each of the following sequences?
1. QRALLYEDTLY [UNC13D_Y56_A59T]
2. KWKQKYEESQS [MYH6_Y1462_E1457K]
3. SWKRRYFLLRA [APBB1IP_Y331]
4. ALKKPYSVLFK [RPF2_Y59_G60S_YF]
5. PTTKTYFPRFD [HBA1_Y43_H46R]
6. DWLRRYLENGK [HLA-A_Y195_E190D]

1: 1.54; 2: 0.671; 3: 0.727; 4: 0.815; 5: 0.569; 6: 1.1

Would you mind listing phosphorylation enrichment for each of the following sequences?
1. SHSMRYFYTAV [HLA-C_Y31_D33Y]
2. KWLEQYTQAIE [LSP1_Y234_Q229K]
3. EVTQDYGLDPK [FH_Y110_N107T]

1. 1.04
2. 1.04
3. 1.32

# credit: the supplement of paper PMC10065799
